# ASSAY EXPLANATION: Animal study (pharmacokinetics), gavage, CBD blood concentration by HPLC
# Assay type: in vivo
# CONDITION LABEL: rat, po, rats, human dose equivalent of 40 mg CBD, from average blood concentration

[
  {
    "MOLECULE": "C=C(C)[C@@H]1CCC(C)=C[C@H]1c1c(O)cc(CCCCC)cc1O [CBD API, Cannabidiol]",
    "UNIT TAG": "ng/mL",
    "Cmax": 15
  }
]

====

# ASSAY EXPLANATION: Animal study (pharmacokinetics), gavage, CBD blood concentration by HPLC
# Format: in vivo
# CONDITION LABEL: rat, blood, oral, 40 mg CBD (human dose equivalent), hour 8, rats, human dose equivalent of 40 mg CBD, group average

[
  {
    "COMPOUND STRUCTURE STRING": "C=C(C)[C@@H]1CCC(C)=C[C@H]1c1c(O)cc(CCCCC)cc1O",
    "concentration at 8 h / ng/mL": 6
  }
]

====

# ASSAY EXPLANATION: Animal study (pharmacokinetics), gavage, CBD blood concentration by HPLC
# Assay type: in vivo
# CONDITION LABEL: rat, blood, po, rats, human dose equivalent of 40 mg CBD
# Description: According to the results of the dissolution study, compositions were prepared by adhering to the ratios of the present invention. 6 rats weighing 250+/−20 grams were used per each study group and a total of 5 groups were used. The compositions were administered by gavage at the human dose equivalent of 40 mg CBD per composition. The results were analyzed by blood draws at each of the time points over an 8 hour period. […]
ASSAY ENDPOINT: AUC(0-t) (ng·h/mL)

[
  {
    "COMPOUND STRUCTURE STRING": "C=C(C)[C@@H]1CCC(C)=C[C@H]1c1c(O)cc(CCCCC)cc1O",
    "ASSAY ENDPOINT": "AUC(0-t)",
    "REPORTED": 71
  }
]

====

# ASSAY EXPLANATION: Animal study (pharmacokinetics), gavage, CBD blood concentration by HPLC
# Format: in vivo
# CONDITION LABEL: rat, blood, po, rats, human dose equivalent of 40 mg CBD, read-out: Tmax

[
  {
    "COMPOUND STRUCTURE STRING": "C=C(C)[C@@H]1CCC(C)=C[C@H]1c1c(O)cc(CCCCC)cc1O",
    "UNIT TAG": "min",
    "Tmax": 30
  }
]

====

# ASSAY EXPLANATION: Animal study (pharmacokinetics), gavage, CBD blood concentration by HPLC
# Format: in vivo
# CONDITION LABEL: rat, blood, oral, 40 mg CBD (human dose equivalent), hour 0, rats, human dose equivalent of 40 mg CBD, group average

[
  {
    "COMPOUND STRUCTURE STRING": "C=C(C)[C@@H]1CCC(C)=C[C@H]1c1c(O)cc(CCCCC)cc1O",
    "concentration at 0 h": "0 ng/mL"
  }
]

====

# ASSAY EXPLANATION: Animal study (pharmacokinetics), gavage, CBD blood concentration by HPLC
# Type: in vivo
# CONDITION LABEL: rat, blood, oral, 40 mg CBD (human dose equivalent), hour 1, rats, human dose equivalent of 40 mg CBD, group average
ASSAY ENDPOINT: concentration at 1 h (ng/mL)

[
  {
    "COMPOUND STRUCTURE STRING": "C=C(C)[C@@H]1CCC(C)=C[C@H]1c1c(O)cc(CCCCC)cc1O",
    "ASSAY ENDPOINT": "concentration at 1 h",
    "REPORTED": 13
  }
]
